Source: patent US6187802A

# system_name: noradrenaline (NA) reuptake sites (Rattus norvegicus, UniProt Q63380)
# Construct: Frontal cortical tissue from the brains of male Sprague-Dawley rats; from tissue; host or cells: rat brain frontal cortex (crude synaptosomes in A3, washed membranes in A6)
# Sequence (Q63380 1-617): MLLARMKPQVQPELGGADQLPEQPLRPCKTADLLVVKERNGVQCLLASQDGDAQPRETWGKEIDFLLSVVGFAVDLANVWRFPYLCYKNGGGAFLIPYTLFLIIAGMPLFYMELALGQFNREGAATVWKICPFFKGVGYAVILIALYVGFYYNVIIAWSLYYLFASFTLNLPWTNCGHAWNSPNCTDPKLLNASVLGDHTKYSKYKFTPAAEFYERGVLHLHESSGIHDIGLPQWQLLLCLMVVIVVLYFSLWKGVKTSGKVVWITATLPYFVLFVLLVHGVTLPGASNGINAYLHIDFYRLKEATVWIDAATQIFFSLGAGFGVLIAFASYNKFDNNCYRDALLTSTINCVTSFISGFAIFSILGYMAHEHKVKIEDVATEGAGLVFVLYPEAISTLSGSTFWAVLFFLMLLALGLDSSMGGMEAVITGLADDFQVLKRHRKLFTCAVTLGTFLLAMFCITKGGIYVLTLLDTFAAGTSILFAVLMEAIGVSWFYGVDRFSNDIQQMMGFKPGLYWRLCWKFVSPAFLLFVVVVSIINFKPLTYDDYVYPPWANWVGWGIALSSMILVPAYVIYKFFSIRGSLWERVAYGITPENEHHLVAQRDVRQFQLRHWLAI
# run_description: displacement of [3H]nisoxetine from noradrenaline reuptake sites, frontal cortical membranes
# assay_conditions: 10^-6 M test compound, [3H]nisoxetine 0.6 nM, one test only, read-out: NA uptake (% displacement of specific binding of tritiated ligand)
# Experimental: Frontal cortical tissue from the brains of male Charles River rats weighing 150-250 g was homogenised in ice-cold 50 mM Tris-HCl, pH 7.4 (at 25° C.) containing 120 mM sodium chloride and 5 mM potassium chloride (Tris buffer; 1:60 w/v) using a Kinematic polytron (speed setting 6 for 30 seconds) and centrifuged at 40,000 g for 10 minutes. […] Membrane bound radioactivity was recovered by filtration under vacuum through Skatron 11734 filters using a Skatron cell harvester. […]
Counter-ions that a name gives are not always drawn.
For each record, write down the corresponding inhibition at 1 µM.

# return recorded inhibition at 1 µM for entry COCCC1=C(C2(c3ccc(Cl)c(Cl)c3)CCC2)N2CCN=C2S1 [Example 8, hydrobromide] < 50%

# return recorded inhibition at 1 µM for entry CCCN=c1scc(C2(c3ccc4ccccc4c3)CCC2)n1CCC [Example 38, hydrobromide] 95%

# return recorded inhibition at 1 µM for entry Clc1ccc(C2(c3csc(=NCCc4ccccc4)n3CCc3ccccc3)CCC2)cc1 [Example 64, hydrobromide] < 50%

# return recorded inhibition at 1 µM for entry CCCCN=c1scc(C2(c3ccc4ccccc4c3)CCC2)n1CCCC [Example 40, hydrobromide] < 50%

# return recorded inhibition at 1 µM for entry CC(C)N=c1scc(C2(c3ccc(Cl)c(Cl)c3)CCC2)n1C(C)C [Example 17, hydrobromide] 63%

# return recorded inhibition at 1 µM for entry CCN=c1scc(C2(c3ccc4ccccc4c3)CCC2)n1CC [Example 37, hydrobromide] 102%

# return recorded inhibition at 1 µM for entry Clc1ccc(C2(c3csc(=NCC4CC4)n3CC3CC3)CCC2)cc1Cl [Example 21, hydrobromide] 50%

# return recorded inhibition at 1 µM for entry COc1ccc(CCN=c2scc(C3(c4ccc(Br)cc4)CCC3)n2CCc2ccc(OC)c(OC)c2)cc1OC [Example 66, hydrobromide] < 50%
